Give pKi for every item shown.
- experimental target: Acetylcholinesterase (Homo sapiens, UniProt P22303)
- Sequence (P22303 whole entry): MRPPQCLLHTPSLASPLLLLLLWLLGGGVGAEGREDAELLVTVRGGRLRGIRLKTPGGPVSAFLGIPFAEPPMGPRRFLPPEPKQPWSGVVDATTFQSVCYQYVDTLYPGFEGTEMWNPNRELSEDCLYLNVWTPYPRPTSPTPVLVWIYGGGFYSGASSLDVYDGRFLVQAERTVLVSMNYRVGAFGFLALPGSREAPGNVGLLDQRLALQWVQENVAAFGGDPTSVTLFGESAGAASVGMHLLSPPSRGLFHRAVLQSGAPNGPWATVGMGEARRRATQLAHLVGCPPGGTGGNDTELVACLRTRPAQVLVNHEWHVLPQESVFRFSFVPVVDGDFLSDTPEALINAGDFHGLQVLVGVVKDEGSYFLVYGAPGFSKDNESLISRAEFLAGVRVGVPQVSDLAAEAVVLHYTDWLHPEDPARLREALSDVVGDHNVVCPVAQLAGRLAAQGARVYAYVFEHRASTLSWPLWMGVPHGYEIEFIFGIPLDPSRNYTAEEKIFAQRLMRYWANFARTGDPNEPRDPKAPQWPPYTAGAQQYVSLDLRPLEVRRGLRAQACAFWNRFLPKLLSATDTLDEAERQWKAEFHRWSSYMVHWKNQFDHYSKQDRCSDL
Numbers only, as −log10 of the molar value.

Would you please look over these solved cases?
{"compound": "CC(C)NC[C@H](O)c1ccc(OC(=O)N(C)C)c(OC(=O)N(C)C)c1.Cl", "pKi": 2.92}
{"compound": "CC(C)NCC(O)c1ccc(OC(=O)N(C)C)c(OC(=O)N(C)C)c1.Cl (racemic)", "pKi": 2.85}
{"compound": "CC(C)NCC(O)c1cc(OC(=O)N(C)C)cc(OC(=O)N(C)C)c1.Cl (racemic)", "pKi": 3.15}

Turning now to a further record.
So what's the measured pKi for this one? "CC(C)NC[C@H](O)c1cc(OC(=O)N(C)C)cc(OC(=O)N(C)C)c1.Cl"
3.41
